TARGET UNDER TEST: GST-Aurora A (Homo sapiens)
Construct: N-terminal GST fusion with full length Aurora A (1-403 amino acids)
ASSAY OVERVIEW: Aurora A IC50, Caliper LC3000 mobility shift assay
TEST SETTINGS: LC3000 method; 15 uM ATP (the KM value); read-out: Aurora Kinase A Activity (IC50)
pIC50: −log10 of the molar value.
In this section, each of the compounds is paired with its reported pIC50.
PROPERTY: pIC50

> print(dat)
                                    compound            target.under.test  property  reported.measurement
 1  O=c1[nH]c2nccc(Nc3ccc(OCc4ccccc4)cc3)c2c2ccccc12 [Compound 329]  GST-Aurora A (Homo sapiens)     pIC50          7.00 to 7.96
 2  O=C(Nc1ccccc1)c1ccc(Nc2ccnc3[nH]c(=O)c4ccccc4c23)cc1 [Compound 317]  GST-Aurora A (Homo sapiens)     pIC50                < 7.00
 3  O=C(Nc1ccc(Nc2ccnc3[nH]c(=O)c4ccccc4c23)cc1)c1ccc(F)cc1F [Compound 391]  GST-Aurora A (Homo sapiens)     pIC50                > 7.96
 4  O=c1[nH]c2ncccc2c2cc(NCc3cccnc3)ccc12 [Example 123]  GST-Aurora A (Homo sapiens)     pIC50                < 7.00
 5  O=C(CC1CC1)Nc1ccc(Nc2ccnc3[nH]c(=O)c4ccccc4c23)cc1 [Compound 352]  GST-Aurora A (Homo sapiens)     pIC50          7.00 to 7.96
 6  O=c1[nH]c2ncccc2c2cc(NCc3c(F)cccc3C(F)(F)F)ccc12 [Compound 461]  GST-Aurora A (Homo sapiens)     pIC50                < 7.00
 7  O=c1[nH]c2ncccc2c2cc(NS(=O)(=O)c3ccc(Br)cc3)ccc12 [Example 72]  GST-Aurora A (Homo sapiens)     pIC50                < 7.00
 8  O=C(Cc1ccccc1)N1CCC(Nc2ccnc3[nH]c(=O)c4ccccc4c23)C1 (stereo not shown) [Compound 369]  GST-Aurora A (Homo sapiens)     pIC50                < 7.00
 9  CN1CCC(C(=O)Nc2ccc(Nc3ccnc4[nH]c(=O)c5ccccc5c34)cc2)CC1 [Compound 346]  GST-Aurora A (Homo sapiens)     pIC50                < 7.00
10  O=C(Nc1ccc(Nc2ccnc3[nH]c(=O)c4ccccc4c23)cc1)C1(C(F)(F)F)CCCCC1 [Compound 499]  GST-Aurora A (Homo sapiens)     pIC50          7.00 to 7.96
11  CN1CCN(c2ccc3c(c2)c(=O)[nH]c2nccc(Nc4ccc(NC(=O)c5ccccc5)cc4)c23)CC1 [Compound 276]  GST-Aurora A (Homo sapiens)     pIC50          7.00 to 7.96
12  CN1CCN(Cc2ccc3c(=O)[nH]c4nccc(Nc5ccc(NC(=O)c6ccccc6)cc5)c4c3c2)CC1 [Compound 291]  GST-Aurora A (Homo sapiens)     pIC50                > 7.96
13  O=C(Nc1ccc(Nc2ccnc3[nH]c(=O)c4ccccc4c23)cc1)c1ccc(Cl)cc1 [Compound 389]  GST-Aurora A (Homo sapiens)     pIC50                > 7.96
14  O=C(Nc1ccc(Nc2ccnc3[nH]c(=O)c4c(C(=O)NCCCN5CCOCC5)cccc4c23)cc1)c1ccc(F)cc1C(F)(F)F [Compound 443]  GST-Aurora A (Homo sapiens)     pIC50                > 7.96
15  O=c1[nH]c2nccc(Nc3ccc4c(cnn4Cc4ccccc4)c3)c2c2ccccc12 [Compound 333]  GST-Aurora A (Homo sapiens)     pIC50          7.00 to 7.96
16  O=C(Nc1ccc(Nc2ccnc3[nH]c(=O)c4ccccc4c23)cc1)c1ccccc1C(F)(F)F [Compound 379]  GST-Aurora A (Homo sapiens)     pIC50                > 7.96

* * *

TARGET UNDER TEST: GST-Aurora A (Homo sapiens, UniProt O14965)
Construct: N-terminal GST fusion with full length Aurora A (1-403 amino acids)
ASSAY OVERVIEW: Aurora A IC50, Caliper LC3000 mobility shift assay
TEST SETTINGS: LC3000 method; 15 uM ATP (the KM value); read-out: Aurora Kinase A Activity (IC50)
Listing of entries alongside the reported IC50.
PROPERTY: IC50

> print(dat)
                                    molecule  reported.measurement
 1  Cn1ccc(-c2ccc(Nc3ccnc4[nH]c(=O)c5ccccc5c34)cc2)n1 [Compound 335]              > 100 nM
 2  O=C(CN1CCC(Nc2ccnc3[nH]c(=O)c4ccccc4c23)CC1)Nc1cccc(F)c1 [Compound 373]          11 to 100 nM
 3  O=c1[nH]c2ncccc2c2cc(NCc3cccc4ccccc34)ccc12 [Example 45]              > 100 nM
 4  NC(=O)c1ccc2c(=O)[nH]c3nccc(Nc4ccc(NC(=O)c5ccccc5)cc4)c3c2c1 [Compound 282]               < 11 nM
 5  CN(C)CCCNC(=O)c1cccc2c1c(=O)[nH]c1nccc(Nc3ccc(NC(=O)c4ccc(F)cc4C(F)(F)F)cc3)c12 [Compound 441]               < 11 nM
 6  O=C(Nc1ccc(Nc2ccnc3[nH]c(=O)c4ccccc4c23)cc1)C1CC1 [Compound 351]          11 to 100 nM
 7  CN(C)CCNC(=O)c1ccc2c(=O)[nH]c3nccc(Cl)c3c2c1 [Compound 296]              > 100 nM
 8  O=C(Nc1ccc(Nc2ccnc3[nH]c(=O)c4cc(Cl)ccc4c23)cc1)c1ccccc1 [Compound 275]          11 to 100 nM
 9  O=C(Nc1ccc(Nc2ccnc3[nH]c(=O)c4ccccc4c23)cc1F)c1ccccc1 [Compound 320]          11 to 100 nM
10  O=C(Nc1ccc(Nc2ccnc3[nH]c(=O)c4ccccc4c23)cc1)c1cccnc1C(F)(F)F [Compound 498]               < 11 nM
11  O=C(Cc1cc(Nc2ccnc3[nH]c(=O)c4ccccc4c23)n[nH]1)Nc1ccccc1 [Compound 315]              > 100 nM
12  O=C(Nc1ccc(Nc2ccnc3[nH]c(=O)c4ccccc4c23)cc1)C1(c2ccccc2)CCCC1 [Compound 494]          11 to 100 nM
13  O=C(Nc1ccc(Nc2ccnc3[nH]c(=O)c4ccccc4c23)cc1)c1ccccc1OCCCN1CCOCC1 [Compound 357]              > 100 nM
14  NCc1ccc2c(=O)[nH]c3nccc(Nc4ccc(NC(=O)c5ccccc5)cc4)c3c2c1 [Compound 280]               < 11 nM
15  N#Cc1cccc(CNc2ccc3c(=O)[nH]c4ncccc4c3c2)c1 [Compound 463]              > 100 nM
16  COc1ccccc1Nc1ccc2c(=O)[nH]c3ncccc3c2c1 [Example 30]              > 100 nM

* * *

TARGET UNDER TEST: AurA (Homo sapiens, UniProt O14965)
Construct: purchased Caliper Life Sciences
Sequence (O14965 1-403): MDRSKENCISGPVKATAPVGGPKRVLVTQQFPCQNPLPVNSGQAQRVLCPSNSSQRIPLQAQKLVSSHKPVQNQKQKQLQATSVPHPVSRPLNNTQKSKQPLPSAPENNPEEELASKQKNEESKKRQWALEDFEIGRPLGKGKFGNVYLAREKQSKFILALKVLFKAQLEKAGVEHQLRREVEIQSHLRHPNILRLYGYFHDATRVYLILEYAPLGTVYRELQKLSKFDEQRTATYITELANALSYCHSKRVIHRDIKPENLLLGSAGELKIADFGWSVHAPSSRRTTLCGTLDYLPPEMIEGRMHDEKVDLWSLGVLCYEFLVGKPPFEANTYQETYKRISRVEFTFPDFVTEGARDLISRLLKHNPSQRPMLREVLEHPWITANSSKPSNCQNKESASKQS
ASSAY OVERVIEW: Desktop Profiler kinase panel, AurA
Assay type: biochemical
TEST SETTINGS: 1 micromolar concentration of the compound
PROPERTY: inhibition at 1 µM

> print(dat)
                             smiles.notation                    target.under.test  reported.measurement
 1  COc1ccc(CCNc2ccc3c(=O)[nH]c4ncccc4c3c2)cc1  AurA (Homo sapiens, UniProt O14965)             50 to 70%
 2  COc1ccc(Nc2ccnc3[nH]c(=O)c4ccccc4c23)cc1  AurA (Homo sapiens, UniProt O14965)             50 to 70%
 3   COc1ccccc1CNc1ccc2c(=O)[nH]c3ncccc3c2c1  AurA (Homo sapiens, UniProt O14965)                 > 90%
 4  O=C(Nc1ccc(Nc2ccnc3[nH]c(=O)c4ccccc4c23)cc1)c1ccccc1  AurA (Homo sapiens, UniProt O14965)                 > 90%
 5  COc1ccc(Nc2ccc3c(=O)[nH]c4ncccc4c3c2)cc1  AurA (Homo sapiens, UniProt O14965)             50 to 70%
 6    COc1ccccc1Nc1ccnc2[nH]c(=O)c3ccccc3c12  AurA (Homo sapiens, UniProt O14965)             70 to 90%
 7     O=c1[nH]c2ncccc2c2cc(NCc3ccccc3)ccc12  AurA (Homo sapiens, UniProt O14965)             70 to 90%
 8      O=c1[nH]c2nccc(Nc3ccccc3)c2c2ccccc12  AurA (Homo sapiens, UniProt O14965)             50 to 70%
 9  O=c1[nH]c2ncccc2c2cc(NCc3cccc(F)c3)ccc12  AurA (Homo sapiens, UniProt O14965)                 > 90%
10    COc1ccccc1Nc1ccc2c(=O)[nH]c3ncccc3c2c1  AurA (Homo sapiens, UniProt O14965)             70 to 90%
11  COc1ccc(CNc2ccc3c(=O)[nH]c4ncccc4c3c2)cc1  AurA (Homo sapiens, UniProt O14965)             50 to 70%
